# System: OVCAR-8 ovarian
# EXPERIMENTAL_PROTOCOL: NCI tumour cell line growth inhibition, 48 h
Where a SMILES comes first, the peptide text is derived from it. [ ]: non-standard residue; d: D form. The star is where a group is joined. X28 = COC1=CC(=O)N(C(=O)[C@@H](O*)C(C)C)[C@H]1Cc1ccccc1; NMeV = CN[C@H](C(=O)O)C(C)C; Hexanoyl = CCCCCC(=O)*
Can you tell me TGI for the items I'm about to list?

What the record says about O=C(/C=C/c1ccccc1)c1cc(Br)ccc1O : TGI is 30.4 µM

Reported TGI for CC1OC(O[C@@H]2OC=C(C=O)[C@@]3(O)CC[C@H](C)[C@@H]23)C(O)C(O)C1O (stereo not given in full) was > 100 µM

Noted for CCOC(=O)C(=[N+]=[N-])C(=O)C1(C(=O)OCC)CCN(C(=O)c2ccccc2)C1=O (stereo not given) : its TGI reads > 100 µM

Looking up Nc1ccn(CCNCCn2cnc3nc(N)[nH]c(=O)c32)c(=O)n1 , I found its TGI recorded as > 100 µM

Entry O=c1cc(-c2ccccc2)[nH]c2ccccc12 , TGI reported as > 100 µM

Lab book: TGI of CCN(CC)CCCNc1nc(=O)[nH]c(C)c1C(=O)Nc1cccc2cc3ccccc3cc12 noted as > 100 µM

So for COC(=O)[C@H](C[C@H](Cc1ccccc1)NC(=O)c1csc([C@@H](C[C@H](C(C)C)N(C)C(=O)[C@@H](NC(=O)[C@H]2CCCCN2C)C(C)C)OC(C)=O)n1)NC(=O)OCc1ccccc1 , the logged TGI turned out to be > 9 µM

# TGI (molecule: CC(C)(Br)C(Br)CCC(C)(Br)C(Br)CO (stereo not given) ) is > 10 µM

// N#Cc1c(N2CCCC2)[nH]c(=O)c(C(c2c(Cl)cccc2Cl)c2c(O)c(C#N)c(N3CCCC3)[nH]c2=O)c1O : TGI value = 33.1 µM

Recorded result, CC(C)c1cc(-c2n[nH]c(=O)n2-c2ccc3c(ccn3C)c2)c(O)cc1O , TGI: > 83.7 µM

O=C1c2cccnc2C(=O)c2nc3cc(N4CCN(C5CC5)CC4)ccc3nc21 has a reported TGI of 11.2 µM

Query O=C(CCCCCCC(=O)Nc1ccc(N(CCCl)CCCl)cc1)NO yields TGI of 21 µM

Entry under test: O=C(/C=C/c1csc(-c2ccccc2)n1)NCc1ccc(C(=O)NCCc2ccccc2)cc1 . Its TGI was 63 µM

Notebook: CN1CCC(n2cnc(-c3ccc(F)cc3)c2-c2ccnc(NCCO)n2)CC1 , TGI read as > 25 µM

Reported TGI ( COc1ccc(/C=C2\C(=O)N(C3OC(COC(C)=O)C(OC(C)=O)C(OC(C)=O)C3OC(C)=O)c3ccccc3N=C2N)cc1 (stereo not given) ) = 45.6 µM

For record O=S(=O)(O)c1ccc(O)c2ncc(Cl)cc12 the listed TGI is > 100 µM

molecule COc1ccc(/C=C2\NC(=S)N(CN3CCCCC3)C2=O)cc1 , TGI observed: 50 µM

Please fill in: TGI reported for COC(=O)C(=O)C1(CCC(C)=O)c2ccccc2-c2c(C)ccc(C)c21 (stereo not given) = > 100 µM

Cc1[nH]ccc2c1[nH]c1cc(=O)ccc12 has a reported TGI of > 100 µM

Entry CCCCCC(=O)N[C@H](C(=O)N[C@H](C(=O)N(C)[C@H](C(=O)N1CCC[C@H]1C(=O)N1CCC[C@H]1C(=O)O[C@H](C(=O)N1C(=O)C=C(OC)[C@@H]1Cc1ccccc1)C(C)C)C(C)C)C(C)C)C(C)C (Hexanoyl-VV[NMeV]PP-X28) ; TGI = > 100 µM

GET /value?item= Nc1ccccc1C#C/C=C\C#Cc1cccs1 &field=TGI returns > 83.4 µM

Item: O=C1c2ccccc2S(=O)(=O)c2c1cccc2[N+](=O)[O-] | TGI: 5.46 µM

Notebook: N#CCc1nc2ccccc2c(=O)[nH]1 , TGI read as > 100 µM

Record summary for CN(C)CCCNC(CC#N)CCC#N (stereo not given) : reported TGI = > 10 µM

Entry O=C(CSc1nnc(-c2ccc(N=Cc3ccc(Cl)cc3)cc2)o1)Nc1ccc(Cl)cc1Cl , TGI reported as 83.7 µM
